The values you see were collected from patent US20230263907A1.

# test-description: Phase solubility screening of orantinib with gamma-cyclodextrin at pH 6
# Format: physicochemical
# conditions: water with 15 % (w/v) γ-cyclodextrin, 22.5 °C, aqueous with cosolvent or surfactant or cyclodextrin, thermodynamic from solid; 15 % (w/v) γCD, pH 6.0
parameter: solubility at 4 h
I'd appreciate it if you wrote the number followed by its unit.

According to the records, this compound Cc1[nH]c(/C=C2\C(=O)Nc3ccccc32)c(C)c1CCC(=O)O [Orantinib] displays solubility at 4 h of 12 µg/mL
